# assay comment: Quantitative High-Throughput drug screen in 47 multiple myeloma cell lines against the NCATS MIPE library collection: NCIH929_DSMZ cell viability assay (AID 1918978); further: nearly all actives have a fitted effect of over 35% in size
# measurement parameters: NCI-H929 myeloma viability, CellTiter-Glo ATP, 48 h; series mostly up to 45.8 µM
Results filed as inconclusive are left out. Active and inactive are the calls of the source. The call rests on the fitted dose curve; in most records, active means well fitted cell-killing curve with a large enough effect; inconclusive means small, poorly fitted or top-dose-only effect; inactive means no such curve, though single readings can be large or run the other way.
Please answer using one outcome listed in label 1 (active), label 0 (inactive)

compound | classification
COc1ccc2ccc(=O)oc2c1CC=C(C)C | label 0
O[C@@H](COc1cccc2ncccc12)CN1CCN(C2c3ccccc3[C@@H]3[C@H](c4ccccc42)C3(F)F)CC1 (stereo partly specified) | label 1
CN[C@@H]1CN(c2ccc3c(=O)c(C(=O)O)cn(-c4nccs4)c3n2)C[C@@H]1OC | label 1

How was C=C1[C@H](n2cnc3c(=O)[nH]c(N)nc32)C[C@H](O)[C@H]1CO classified in this test?
label 1

How was O=S(=O)(NCCNCC=Cc1ccc(Br)cc1)c1cccc2cnccc12 classified in this test?
label 1

How was CO[C@H]1/C=C\O[C@@]2(C)Oc3c(C)c(O)c4c(O)c(c(C=NN5CCN(C6CCCC6)CC5)c(O)c4c3C2=O)NC(=O)C(C)=CC=C[C@H](C)[C@H](O)[C@@H](C)[C@@H](O)[C@@H](C)[C@H](OC(C)=O)[C@H]1C classified in this test?
label 1

How was Nc1ncnc2c1ncn2[C@@H]1O[C@H](CO)[C@@H](O)[C@@H]1O classified in this test?
label 1

How was CNC(=O)[C@H](Cc1ccccc1)NC(=O)[C@H](CC(C)C)[C@H](CSc1cccs1)C(=O)NO classified in this test?
label 1

How was CCCCOCCOc1nc(-c2ccc(C(=O)O)c(F)c2)sc1C classified in this test?
label 0

How was CC[C@H](C)C(=O)O[C@H]1C[C@H](O)C=C2C=C[C@H](C)[C@H](CC[C@@H](O)C[C@@H](O)CC(=O)O)[C@H]21 classified in this test?
label 0

How was Cc1ccc(C(=O)N(CCCN)[C@@H](c2nc3cc(Cl)ccc3c(=O)n2Cc2ccccc2)C(C)C)cc1 classified in this test?
label 1

This collection of values is drawn from PubChem BioAssay (NCATS).
